In this section we review reported melting point values for a set of compounds.

Annotate the compound Cc1nc(OC(C)C)c([N+](=O)[O-])c(N2CCN(c3ccc(F)cc3)CC2)n1 with its measured melting point.
98 to 100 °C

Annotate the compound OC(Cc1ccccc1)c1ccccc1Br (stereo not given) with its measured melting point.
84 to 85 °C

Annotate the compound CNC(=O)c1ccc(-c2cccc(C3=NC(C)(C)Cc4cc(OC)c5c(c43)CC(C)(C)O5)c2)cc1 with its measured melting point.
242 to 244 °C

Annotate the compound N#Cc1coc2ccc(Br)cc2c1=O with its measured melting point.
193 to 200 °C

Annotate the compound Cc1ccc(Cn2ccc(OCc3ccccc3)cc2=O)cc1 with its measured melting point.
143 °C

====

In this section we review reported melting point values for a set of molecules.

The cases that follow already have their melting point on record.
• COC(=O)c1ccc(Cn2c(C)nc3ccccc32)c2ccccc12 = 207 to 208 °C
• CCN(CCOc1ccc(NC(=O)c2cccc3c(=O)c4ccccc4[nH]c23)cc1)Cc1ccccc1 = 157 °C

Annotate the molecule O=c1[nH]c2ncc(-c3ccc4cc[nH]c4c3)nc2n1CC1CCCCC1 with its measured melting point.
359 to 363 °C

Annotate the molecule CC1(COc2ccc([N+](=O)[O-])cc2)CC(O)c2cc(O)c(C(C)(C)C)cc2O1 (configuration not stated) with its measured melting point.
194 to 201 °C

Annotate the molecule CC(c1cccc(C(=O)c2ccccc2)c1)C(O)CC#N (configuration not stated) with its measured melting point.
130 °C

Annotate the molecule CNc1nc(-c2cccc(C(=O)Nc3cccnc3)c2)c2cc(OC)c(OC)cc2n1 with its measured melting point.
238 to 240 °C

Annotate the molecule CC(=O)Oc1ccccc1C(=O)Nc1cc(Cl)cc(Cl)c1 with its measured melting point.
167 to 168 °C

Annotate the molecule O=C1OCCC1N1C(=O)c2cccc3cccc(c23)C1=O (configuration not stated) with its measured melting point.
310 to 312 °C

Annotate the molecule O=C1CCCc2cc(O)c(Cl)c(Cl)c21 with its measured melting point.
244 to 246 °C

Annotate the molecule C#CC(OC(=O)C1CC1)c1ccc2ccccc2c1 (configuration not stated) with its measured melting point.
65 to 66 °C

Annotate the molecule COC(=O)CCCCCCC1=CCC(O)C1=O (configuration not stated) with its measured melting point.
62.5 to 63.5 °C

Annotate the molecule CC(C)(C)OC(=O)Nc1ccncc1N with its measured melting point.
124 to 126 °C

Annotate the molecule CCCCCCCCCC(=O)NCCCCCC(=O)OO with its measured melting point.
63 to 67 °C

Annotate the molecule CCCc1nn(C)c2c(=O)[nH]c(-c3cc(S(=O)(=O)Cl)cc4c3OCC4)nc12 with its measured melting point.
221 to 222 °C

Annotate the molecule CC1Cc2cc(S(N)(=O)=O)cc(C(=O)O)c2O1 (configuration not stated) with its measured melting point.
245 to 246 °C

Annotate the molecule COc1cc2cn(CC3CCCCO3)nc2cc1OC (configuration not stated) with its measured melting point.
90 to 96 °C

Annotate the molecule CC(C)CC(=O)NC(=O)c1nnn(Cc2ccccc2)c1N with its measured melting point.
138 to 150 °C

====

measure: melting point

• O=C(O)C1CCC(Nc2nccc(-n3nnc4c(I)cccc43)n2)CC1 (stereo not given) = 252 to 254 °C
• O=C(O)Cc1cccc(Cc2nc3c(F)c(F)cc(F)c3s2)c1Cl = 156 to 158 °C
• CCCn1c(OCC2CC2(Cl)Cl)nc2sc(Cl)cc2c1=O (stereo not given) = 94 to 96 °C
• COC(=O)C=Cc1ccccc1C#N = 92 to 93 °C
• COP(=O)(OC)C(c1ccc(F)cc1)(c1ccc(F)cc1)c1ccc(Cl)cc1 = 136 to 137 °C

Then this compound:
Annotate the compound N#Cc1cc(Br)cc(-c2ccsc2)c1 with its measured melting point.
62 to 63 °C

====

measure: melting point

* CCOC(=O)CCC(=O)c1ccc(CCCCN2CCN(c3cccc(C)c3)CC2)cc1 | 62 to 63 °C
* CCOc1nc(O)nn1CC | 64 to 67 °C
* COc1ccc(NC(N)=S)nc1 | 131 to 135 °C
* Cc1c(C)c(N2C(=O)c3cc(Cl)c(Cl)cc3C2=O)c(C)c2c1OC(C)(C)C2c1ccc(F)cc1 (stereo not given) | 232 to 233 °C
* Cn1cc(C2(c3c4n(c5ccccc35)CCCCC4)CC(=O)NC2=O)c2ccccc21 (stereo not given) | > 300 °C

Annotate the molecule CCCNC(=O)C(C)=Cc1ccc2c(c1)c(Cc1ccc(C(=O)O)cc1OC)cn2CC(=O)N(C)C with its measured melting point.
232 to 235 °C

Annotate the molecule CC(C)(C)OC(=O)N[C@H]1CN(N=C(c2ccccc2)c2ccccc2)C1=O with its measured melting point.
167 to 170 °C

Annotate the molecule CC(C)(C)OC(=O)NCCc1ccnc(-c2nc(=O)c3ccc(Cl)cc3s2)c1 with its measured melting point.
168 to 169 °C

Annotate the molecule COc1cccc2c1nc(C(F)F)n2-c1nc(Nc2ccncn2)nc(N2CCOCC2)n1 with its measured melting point.
234 to 236 °C

Annotate the molecule COc1cc(C(C)C#Cc2cnc(N)nc2N)cc(OC)c1OC (stereo not given) with its measured melting point.
220 to 222 °C

====

In this section we review reported melting point values for a set of compounds.

- COc1cccc2c1Cc1c(OC)cccc1C2(CCO)CCO: 193 to 196 °C
- Cc1cccc(NC(=O)NCC(=O)N(CC(=O)OC(C)(C)C)c2ccccc2OC(F)(F)F)c1: 163 °C
- CC(=O)c1ccc2oc3ncccc3c(=O)c2c1: 195 to 196 °C
- Cc1c(-c2ccncc2)[nH]c(-c2ccncc2)c1C=O: 278 to 280 °C

Annotate the compound CC/C=C/c1nc(Cl)c(C=O)n1Cc1ccc(-c2ccccc2C(=O)O)cc1 with its measured melting point.
164 to 166 °C

====

measure: melting point

* CCC(CC)(CCC#N)C(NC(=O)c1ccc(Cl)cc1)NC(=NC#N)Nc1cccnc1 (stereo not given) | 150 to 152 °C
* C=Cc1c(F)c(F)cc(C(=O)O)c1F | 108 to 110 °C
* COc1ccccc1-c1ccc(C(=O)N2Cc3cccn3Cc3ccccc32)cc1 | 250 to 253 °C

Annotate the compound COc1cc2c(cc1OC)CC(NC(=O)C1CCCN1C(C)=O)CC2 (stereo not given) with its measured melting point.
63 to 65 °C

Annotate the compound CCOC(=O)c1c(O)c2c(C)csc2n(Cc2ccccc2)c1=O with its measured melting point.
166 °C

Annotate the compound CCOCc1nc2c(N)nc3cc(-n4ccccc4=O)ccc3c2n1CCCOC(C)C with its measured melting point.
161 to 164 °C

====

measure: melting point

• CS(=O)(=O)c1ccc(-n2cnc(Cl)c2-c2ccc(Cl)nc2)cc1 = 223 °C

Annotate the molecule Cc1nc(CN2C(=O)C3(COc4cc5c(cc43)OCO5)c3ccccc32)c(C(F)(F)F)o1 (stereo unspecified) with its measured melting point.
136 to 137 °C

Annotate the molecule CCC12CCC(=O)C=C1c1c(cc(OCC(=O)OCC3COC(C)(C)O3)c(Cl)c1Cl)C2 (stereo unspecified) with its measured melting point.
143 to 145 °C

Annotate the molecule COC(=O)C(=CN1c2ccc(F)c(F)c2OCC1C)C(=O)OC (stereo unspecified) with its measured melting point.
146 to 147 °C

Annotate the molecule O=C(Nc1n[nH]c(=S)s1)NC(Cc1ccccc1)C(=O)NCCCc1ccccc1 (stereo unspecified) with its measured melting point.
190 to 191 °C

Annotate the molecule Cn1c2c(c(=O)n(-c3ccc(Cl)c(C(=O)OC(C)(C)C)c3)c1=O)CCC2 with its measured melting point.
189 to 191 °C

Annotate the molecule Cc1ncncc1C(=O)Nc1ccc(-n2nc(C3CC3)cc2C2CC2)cc1 with its measured melting point.
89 to 95 °C

Annotate the molecule O=C1c2ccccc2C(=O)N1CC1CCC2CN(c3ccccn3)CCN2C1 (stereo unspecified) with its measured melting point.
167 to 168 °C

Annotate the molecule CC(=O)Nc1cc(F)ccc1C with its measured melting point.
127 to 128 °C

Annotate the molecule COc1ccc([C@@H]2[C@@H](CCCBr)C(=O)N2c2ccc(OC)cc2)cc1 with its measured melting point.
70 to 73 °C

Annotate the molecule Cc1noc(NS(=O)(=O)c2ccc(F)cc2)c1Br with its measured melting point.
142 to 144 °C

Annotate the molecule O=c1cc(COC2CCCCO2)occ1OCCCCCBr (stereo unspecified) with its measured melting point.
140 °C

Annotate the molecule COc1ccc(S(=O)(=O)Nc2cccnc2Nc2ccccc2F)cc1 with its measured melting point.
148 to 150 °C

Annotate the molecule Cc1ccc(OC(=O)CCCC(=O)OOC(=O)CCCC(=O)Oc2ccc(C)cc2)cc1 with its measured melting point.
24 to 30 °C

Annotate the molecule Cc1ccccc1C(F)(F)C(F)(F)c1ccccc1C with its measured melting point.
71.5 to 73.5 °C

Annotate the molecule COc1ccc(-c2nc(S(=O)CC3OCCO3)[nH]c2-c2ccc(OC)cc2)cc1 (stereo unspecified) with its measured melting point.
203 to 204 °C

Annotate the molecule Cc1nc2ccccc2nc1C(=O)OCCO with its measured melting point.
146 to 148 °C

Annotate the molecule CN(C)c1ccc(C=CC(=O)CC(=O)C=Cc2ccc(N(C)C)cc2)cc1 with its measured melting point.
207 to 208 °C
